What follows is a record of pIC50 for High affinity nerve growth factor receptor (Homo sapiens).
# pIC50 is unitless: minus log10 of the molar concentration; print number only

{"columns": ["compound", "endpointResult"],
 "data": [
  ["COc1cc2nccc(Oc3ccc(NC(=O)C4(C(=O)Nc5ccc(F)cc5)CC4)cc3)c2cc1OC [CABOZANTINIB]", 7.10]
]}

Then there is this compound:
pIC50 for High affinity nerve growth factor receptor (Homo sapiens) with input `Cn1cc(-c2ccc3c(c2)ncn3-c2ccc(CC(=O)Nc3cc(C(C)(C)C)on3)cc2)cn1` equals 8.80

* * *

- Tested on: LC-2-ad
- measurementDescription: Antiproliferative activity against human LC-2-ad cells harbouring RET assessed as reduction in cell viability
- Assay type: functional
observationType: GC50 (nM)
State the answer as a number, implicitly in nM.

Known results for compounds:
{"columns": ["structure", "observationType", "endpointResult"],
 "data": [
  ["COCCn1cc(-c2ccc3c(c2)[nH]c2ncnc(Nc4ccc(CC(=O)Nc5cc(C(C)(C)C)on5)cc4)c23)cn1", "GC50", 360],
  ["C[C@@H]1CCc2ncc(F)cc2[C@H]2CCCN2c2ccn3ncc(c3n2)C(=O)N1", "GC50", 25980],
  ["O=C(Cc1ccc(Nc2ncnc3[nH]c4ccccc4c23)cc1)Nc1cccc(C(F)(F)F)c1", "GC50", 940]
]}

Then there is this compound:
Briefly, GC50 measured for `CNC(=O)c1cc(Oc2ccc(NC(=O)Nc3ccc(Cl)c(C(F)(F)F)c3)cc2)ccn1` : 540
